Biological target: CFTR-mediated chloride transport (Homo sapiens, UniProt P13569)
Sequence (P13569 whole entry, looked up): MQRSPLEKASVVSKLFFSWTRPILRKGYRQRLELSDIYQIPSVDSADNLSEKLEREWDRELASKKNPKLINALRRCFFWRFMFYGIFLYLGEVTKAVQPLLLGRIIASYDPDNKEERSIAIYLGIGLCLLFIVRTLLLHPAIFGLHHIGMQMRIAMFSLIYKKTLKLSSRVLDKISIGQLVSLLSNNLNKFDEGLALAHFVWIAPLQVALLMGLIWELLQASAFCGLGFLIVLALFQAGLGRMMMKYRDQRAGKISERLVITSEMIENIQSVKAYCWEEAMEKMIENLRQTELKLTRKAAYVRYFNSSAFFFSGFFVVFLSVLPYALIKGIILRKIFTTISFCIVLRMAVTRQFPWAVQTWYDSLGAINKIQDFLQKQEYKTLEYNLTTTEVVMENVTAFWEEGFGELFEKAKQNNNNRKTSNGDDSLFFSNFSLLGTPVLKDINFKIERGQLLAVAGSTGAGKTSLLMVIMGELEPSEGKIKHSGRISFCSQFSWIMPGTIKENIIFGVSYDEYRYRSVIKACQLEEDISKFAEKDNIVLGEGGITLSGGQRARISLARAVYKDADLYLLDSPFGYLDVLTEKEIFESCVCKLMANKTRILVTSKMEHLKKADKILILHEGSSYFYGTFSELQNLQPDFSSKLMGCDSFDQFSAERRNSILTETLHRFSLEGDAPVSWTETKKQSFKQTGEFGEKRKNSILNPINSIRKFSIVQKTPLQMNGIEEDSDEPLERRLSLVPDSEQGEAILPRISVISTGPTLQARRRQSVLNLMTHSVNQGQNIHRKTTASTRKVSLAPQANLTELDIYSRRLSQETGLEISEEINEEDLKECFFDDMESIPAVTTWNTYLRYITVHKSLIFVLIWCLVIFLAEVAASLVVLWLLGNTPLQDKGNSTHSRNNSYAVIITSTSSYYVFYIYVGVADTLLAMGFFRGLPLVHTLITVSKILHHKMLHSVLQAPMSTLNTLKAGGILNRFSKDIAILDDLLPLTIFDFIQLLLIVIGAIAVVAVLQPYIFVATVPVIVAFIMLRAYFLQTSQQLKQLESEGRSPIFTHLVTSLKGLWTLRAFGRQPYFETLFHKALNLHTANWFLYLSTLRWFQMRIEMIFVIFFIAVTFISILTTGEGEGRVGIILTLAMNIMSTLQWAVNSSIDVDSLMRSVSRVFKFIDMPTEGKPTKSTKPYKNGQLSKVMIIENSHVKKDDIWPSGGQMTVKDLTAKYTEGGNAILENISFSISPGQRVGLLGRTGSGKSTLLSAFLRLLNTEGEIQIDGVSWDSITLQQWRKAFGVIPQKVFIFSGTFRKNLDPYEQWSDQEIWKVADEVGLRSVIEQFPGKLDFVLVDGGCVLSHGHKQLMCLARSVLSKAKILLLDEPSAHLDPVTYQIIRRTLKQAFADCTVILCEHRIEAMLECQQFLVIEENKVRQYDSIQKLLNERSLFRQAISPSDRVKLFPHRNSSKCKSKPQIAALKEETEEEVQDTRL
Type: cell-based
Conditions: enteroid cells incubated with test compound 18-24 hours; acute 10 μM forskolin and 300 nM Compound III; % of chloride transport with 3 μM Compound A, 3 μM Compound II and 300 nM acute Compound III triple combination control
MEASURED PROPERTY: Max. Activity

{"COMPOUND": "CC1(C)C[C@@H]2CCCNc3cccc(n3)S(=O)(=O)NC(=O)c3ccc(C4=CCCCO4)nc3N1C2", "RESULT": "+++ (+++ is >60%)"}
{"COMPOUND": "CC1(C)CC2CCCn3ccc(n3)S(=O)(=O)NC(=O)c3ccc(-n4ccc(OCCC5C6(CC6)C56CC6)n4)nc3N1C2 (stereo not drawn)", "RESULT": "+++ (+++ is >60%)"}
{"COMPOUND": "CN1CCC[C@H]2CN(c3nc(-n4ccc(OCCC5(C(F)(F)F)CC5)n4)ccc3C(=O)NS(=O)(=O)c3cccc1n3)C(C)(C)C2 (single isomer, unassigned) [Compound 139]", "RESULT": "+++ (+++ is >60%)"}
{"COMPOUND": "CC1(C)C[C@H]2CCCCCNc3cccc(n3)S(=O)(=O)NC(=O)c3ccc(-n4ccc(OCCC5(C(F)(F)F)CC5)n4)nc3N1C2 (single isomer, unassigned) [Compound 63]", "RESULT": "+++ (+++ is >60%)"}
{"COMPOUND": "CC1(C)CC[C@H]2CCNc3cccc(n3)S(=O)(=O)NC(=O)c3ccc(-n4ccc(OCCC5(C(F)(F)F)CC5)n4)nc3N21 (single isomer, unassigned) [Compound 116]", "RESULT": "++ (++ is 30-60%)"}
{"COMPOUND": "CC(C)(C)CCCN1CCN(c2ccc3c(n2)N2CC(CCCn4ccc(n4)S(=O)(=O)NC3=O)CC2(C)C)C1=O (stereo not drawn)", "RESULT": "++ (++ is 30-60%)"}

---

As shown below, each of these compounds has a reported pEC50 value.
Molecular target: CFTR-mediated chloride transport (Homo sapiens)
Conditions: enteroid cells incubated with test compound 18-24 hours; acute 10 μM forskolin and 300 nM Compound III
pEC50: −log10 of the molar value.

{"COMPOUND": "CC1(C)C[C@@H]2CN1c1nc(-n3ccc(OCCC(C4CC4)C4CC4)n3)ccc1C(=O)NS(=O)(=O)c1cccc(n1)NCCO2 (single isomer, unassigned) [Compound 163]", "ASSAY SYSTEM": "CFTR-mediated chloride transport (Homo sapiens)", "pEC50": "> 6.00"}
{"COMPOUND": "CC1(C)C[C@@H]2CCCNc3cccc(n3)S(=O)(=O)NC(=O)c3ccc(N4CC[C@H](OCCC56CC7CC(CC(C7)C5)C6)C4=O)nc3N1C2 (single isomer, unassigned) [Compound 241]", "ASSAY SYSTEM": "CFTR-mediated chloride transport (Homo sapiens)", "pEC50": "> 6.00"}
{"COMPOUND": "CC(C)C(COc1ccn(-c2ccc3c(n2)N2CC(CC2(C)C)OCCNc2cccc(n2)S(=O)(=O)NC3=O)n1)C(C)C (stereo not drawn)", "ASSAY SYSTEM": "CFTR-mediated chloride transport (Homo sapiens)", "pEC50": "> 6.00"}
{"COMPOUND": "CC1(C)CCC2CCCNc3cccc(n3)S(=O)(=O)NC(=O)c3ccc(-n4ccc(OCCC(C5CC5)C5CC5)n4)nc3N21 (stereo not drawn)", "ASSAY SYSTEM": "CFTR-mediated chloride transport (Homo sapiens)", "pEC50": "> 6.00"}
{"COMPOUND": "CC1(C)C[C@H]2CCCNc3ccc(cn3)S(=O)(=O)NC(=O)c3ccc(-n4ccc(OCCC5(C(F)(F)F)CC5)n4)nc3N1C2 (single isomer, unassigned) [Compound 72]", "ASSAY SYSTEM": "CFTR-mediated chloride transport (Homo sapiens)", "pEC50": "< 5.52"}
{"COMPOUND": "CN1CCC[C@H]2CN(c3nc(-n4ccc(OCCC5(C(F)(F)F)CC5)n4)ccc3C(=O)NS(=O)(=O)c3cccc1n3)C(C)(C)C2 (single isomer, unassigned) [Compound 139]", "ASSAY SYSTEM": "CFTR-mediated chloride transport (Homo sapiens)", "pEC50": "> 6.00"}
{"COMPOUND": "CC1(C)C[C@@H]2CCCNc3cccc(n3)S(=O)(=O)NC(=O)c3ccc(-n4ccc(OCCC(O)C5(C(F)(F)F)CC5)n4)nc3N1C2 (stereo partly drawn)", "ASSAY SYSTEM": "CFTR-mediated chloride transport (Homo sapiens)", "pEC50": "> 6.00"}
{"COMPOUND": "CC(C)(C)CCCN1CCN(c2ccc3c(n2)N2CC(CCCn4ccc(n4)S(=O)(=O)NC3=O)CC2(C)C)C1=O (stereo not drawn)", "ASSAY SYSTEM": "CFTR-mediated chloride transport (Homo sapiens)", "pEC50": "> 6.00"}
{"COMPOUND": "CC1(C)CC[C@H]2CCCNc3cccc(n3)S(=O)(=O)NC(=O)c3ccc(-n4ccc(OCC5C6(CC6)C56CC6)n4)nc3N21 (single isomer, unassigned) [Compound 124]", "ASSAY SYSTEM": "CFTR-mediated chloride transport (Homo sapiens)", "pEC50": "> 6.00"}
{"COMPOUND": "CC1(C)C[C@H]2CCCCn3cc(cn3)S(=O)(=O)NC(=O)c3ccc(-n4ccc(OCCC5(C(F)(F)F)CC5)n4)nc3N1C2 (single isomer, unassigned) [Compound 135]", "ASSAY SYSTEM": "CFTR-mediated chloride transport (Homo sapiens)", "pEC50": "> 6.00"}
{"COMPOUND": "CC1(C)CC2CCCn3ccc(n3)S(=O)(=O)NC(=O)c3ccc(-n4ccc(OCCC5C6(CC6)C56CC6)n4)nc3N1C2 (stereo not drawn)", "ASSAY SYSTEM": "CFTR-mediated chloride transport (Homo sapiens)", "pEC50": "> 6.00"}
{"COMPOUND": "CC1(C)CC2CNc3cccc(n3)S(=O)(=O)NC(=O)c3ccc(-n4ccc(OCCC5(C(F)(F)F)CC5)n4)nc3N1C2 (stereo not drawn)", "ASSAY SYSTEM": "CFTR-mediated chloride transport (Homo sapiens)", "pEC50": "5.52 to 6.00"}

---

Biological target: CFTR-mediated chloride transport (Homo sapiens)
Assay type: cell-based
Conditions: enteroid cells incubated with test compound 18-24 hours; acute 10 μM forskolin and 300 nM Compound III; % of chloride transport with 3 μM Compound A, 3 μM Compound II and 300 nM acute Compound III triple combination control
Method: Base medium (ADF+++) consisted of Advanced DMEM/Ham's F12, 2 mM Glutamax, 10 mM HEPES, […] penicillin/streptomycin. […] Enteroid cells were incubated with test compound in IEMM for 18-24 hours at 37° C., 95% humidity and 5% CO2. […] Chloride transport was initiated by addition of Chloride Free Dye Stimulation Solution and the fluorescence signal was read for 15 min. […]

{"COMPOUND": "CC1(C)CC[C@H]2CCCNc3cccc(n3)S(=O)(=O)NC(=O)c3ccc(-n4ccc(OCC5C6(CC6)C56CC6)n4)nc3N21 (single isomer, unassigned) [Compound 124]", "Max. Activity": "+++ (+++ is >60%)"}
{"COMPOUND": "CC1(C)C[C@H]2CCCn3ccc(n3)S(=O)(=O)NC(=O)c3ccc(-n4ccc(OCCCC5(C(F)(F)F)CC5)n4)nc3N1C2 (single isomer, unassigned) [Compound 166]", "Max. Activity": "+++ (+++ is >60%)"}
{"COMPOUND": "CC1(C)CC[C@@H]2CCCNc3cccc(n3)S(=O)(=O)NC(=O)c3ccc(-n4ccc(OCCC5(C(F)(F)F)CC5)n4)nc3N21", "Max. Activity": "+ (+ is <30%)"}
{"COMPOUND": "[2H]C([2H])([2H])C1(C([2H])([2H])[2H])C[C@@H]2CCCNc3cccc(n3)S(=O)(=O)NC(=O)c3ccc(-n4ccc(OCCC5C6(CC6)C56CC6)n4)nc3N1C2", "Max. Activity": "+++ (+++ is >60%)"}
{"COMPOUND": "CC1(C)C[C@@H]2CN1c1nc(-n3ccc(OCCC4(C(F)(F)F)CC4)n3)ccc1C(=O)NS(=O)(=O)c1cccc(n1)NCCO2 (single isomer, unassigned) [Compound 74]", "Max. Activity": "+ (+ is <30%)"}
